Cited source: the OPERA property sets (Mansouri et al. 2018)

Overview of recorded melting point for various molecules
Form entry: value (°C) — number only.

Please review the following examples before continuing.
[[record]]
sample_smiles = "CS(=O)(=O)c1cc(C(F)(F)F)ccc1C(=O)c1cnoc1C1CC1"
obs_value = 140

[[record]]
sample_smiles = "Cc1c(N)cccc1N"
obs_value = 106

[[record]]
sample_smiles = "CCCCOC(=O)COc1cc(Cl)c(Cl)cc1Cl"
obs_value = 28.5

[[record]]
sample_smiles = "CN(C)C(=O)Nc1ccc(Cl)cc1"
obs_value = 170


State the recorded melting point for this entry: "C=CCCCC"
-140

State the recorded melting point for this entry: "COC1=C[C@@H]2[C@@H]3Cc4ccc(OC)c(O)c4[C@]2(CCN3C)CC1=O"
162

State the recorded melting point for this entry: "N#CCN"
101
